Tested on: HCT-116 colon
Test: NCI tumour cell line growth inhibition, 48 h
experimental-readout: log10 of TGI (log10 of the value in µM)
# log10 transformed; quantity=TGI; unit=µM

log10 of TGI in this record for O=C(N/N=C/c1coc2ccc(Cl)cc2c1=O)c1cc(O)c(O)c(O)c1 : 1.85

----------
This listing pairs compounds with measured TGI.
System: SF-539 CNS
Assay: NCI tumour cell line growth inhibition, 48 h

Known results for compounds:
CC(C)(CO)CNc1nc(N)nc(Cl)c1C=O    > 100 µM
CC(=O)CC(=O)Nc1ccc(OS(N)(=O)=O)cc1    > 100 µM
O=C1C=CC(=O)N1c1ccc2ccccc2c1    33.9 µM

Pending compound:
Recorded TGI for NC(N)=NS(=O)(=O)c1ccc(NCc2cccc3c(=O)c4ccc(Cl)cc4oc23)cc1 on SF-539 CNS was > 13.1 µM

All values here come from PubChem BioAssay (NCI).
